# Procedure Details: Ocular tissue and plasma pharmacokinetics, 15 mg/kg single and BID oral, Dutch Belted rabbits (Example 3/5)
# Format: in vivo
# Assay Setup: Dutch Belted, rabbit, choroid-RPE, po, 15 mg/kg, DB rabbit, 15 mg/kg BID oral, Day 15, 6 h; read-out: Mean Choroid-RPE concentration
Recorded Endpoint: concentration at 6 h (ng/g)
Write down the numeric answer in ng/g and omit the unit.

# concentration at 6 h (compound: CC(=O)c1nn(CC(=O)N2C[C@H](F)C[C@H]2C(=O)Nc2cccc(Br)n2)c2ccc(-c3cnc(C)nc3)cc12 [Compound 1] ) is 3200

---

# Procedure Details: Ocular tissue and plasma pharmacokinetics, 15 mg/kg single and BID oral, Dutch Belted rabbits (Example 3/5)
# Type: in vivo
# Assay Setup: Dutch Belted, rabbit, choroid-RPE, po, 15 mg/kg, DB rabbit, 15 mg/kg single oral dose, Day 1, 24 h; read-out: Mean Choroid-RPE concentration
# Experimental: Study design including group designation and dose levels are outlined in Table 4. […] Fifteen Dutch Belted and 5 New Zealand White rabbits were used as un-dosed controls. […] The dose volume was 5 mL/kg/dose for all groups. Safety was assessed with toxicological and ophthalmic examinations including slit lamp biomicroscopy, indirect ophthalmoscopy, rebound tonometry, and ultrasonic corneal pachymetry. Analyst® software (Version 1.6.2) was used to capture the LC-MS/MS data and integrate the peak areas. […]
Recorded Endpoint: concentration at 24 h (ng/g)
Write down the numeric answer in ng/g and omit the unit.

# concentration at 24 h (compound: CC(=O)c1nn(CC(=O)N2C[C@H](F)C[C@H]2C(=O)Nc2cccc(Br)n2)c2ccc(-c3cnc(C)nc3)cc12 [Compound 1] ) is 311

---

# Procedure Details: Ocular tissue and plasma pharmacokinetics, 15 mg/kg single and BID oral, Dutch Belted rabbits (Example 3/5)
# Format: in vivo
# Assay Setup: Dutch Belted, rabbit, iris-ciliary body, po, 15 mg/kg, Iris-Ciliary Body, DB rabbit, 15 mg/kg single dose, Day 1
Recorded Endpoint: MRT last

# MRT last (compound: CC(=O)c1nn(CC(=O)N2C[C@H](F)C[C@H]2C(=O)Nc2cccc(Br)n2)c2ccc(-c3cnc(C)nc3)cc12 ) is 46.2 h

Value source: patent US20230126447A1
